Target: Tyrosine-protein phosphatase non-receptor type 1 (Rattus norvegicus) (UniProt P20417)
Sequence (whole entry): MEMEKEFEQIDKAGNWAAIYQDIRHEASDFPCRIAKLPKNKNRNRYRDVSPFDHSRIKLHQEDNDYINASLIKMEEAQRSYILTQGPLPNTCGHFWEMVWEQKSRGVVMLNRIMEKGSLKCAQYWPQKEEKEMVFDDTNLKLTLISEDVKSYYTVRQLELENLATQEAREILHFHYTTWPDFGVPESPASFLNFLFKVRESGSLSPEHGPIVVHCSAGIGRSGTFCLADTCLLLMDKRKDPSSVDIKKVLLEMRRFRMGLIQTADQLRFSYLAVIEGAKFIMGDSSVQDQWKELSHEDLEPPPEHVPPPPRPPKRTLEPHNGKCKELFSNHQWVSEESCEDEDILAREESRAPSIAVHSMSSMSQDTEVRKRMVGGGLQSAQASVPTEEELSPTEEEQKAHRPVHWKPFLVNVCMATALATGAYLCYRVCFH
Test: Inhibition of PTPase (PTP1B) activity in rat hepatic membrane at 50 uM concentration, using pNPP as the substrate
Format: cell membranes
Settings: Liver
Given measured inhibition, output condition met if it is greater than or equal to 30% and condition not met if not.

Solved entries:
>  <compound>
Cc1oc(-c2ccc(C(F)(F)F)cc2)nc1COc1ccc2oc(Cn3oc(=O)[nH]c3=O)cc2c1

>  <category>
condition not met

$$$$
>  <compound>
C/C(=C\CC1OC(=O)NC1=O)c1cccc(OCc2nc(-c3ccc(OC(F)(F)F)cc3)oc2C)c1 (centres undefined)

>  <category>
condition not met

$$$$

Lookup: Would you say CCCCCCCC/C(=C/Cn1oc(=O)n(CC(=O)O)c1=O)c1cccc(OCc2nc(-c3ccc(C(F)(F)F)cc3)oc2C)c1 shows inhibition at minimum 30%?
Found: condition met

Lookup: Would you say CCCC/C(=C\Cn1oc(=O)[nH]c1=O)c1cccc(Oc2ccccc2)c1 shows inhibition at minimum 30%?
Found: condition met

Lookup: Would you say C/C(=C\Cn1oc(=O)[nH]c1=O)c1cccc(COc2cc(C(F)(F)F)cc(C(F)(F)F)c2)c1 shows inhibition at minimum 30%?
Found: condition met

Lookup: Would you say C/C(=C\Cc1nnn[nH]1)c1cccc(OCc2nc(-c3ccc(OC(F)(F)F)cc3)oc2C)c1 shows inhibition at minimum 30%?
Found: condition not met

Lookup: Would you say C/C(=C\Cn1oc(=O)[nH]c1=O)c1cccc(OCC#Cc2cc(C(F)(F)F)cc(C(F)(F)F)c2)c1 shows inhibition at minimum 30%?
Found: condition met

Lookup: Would you say C/C(=C\Cn1oc(=O)[nH]c1=O)c1cccc(OCc2ccccn2)c1 shows inhibition at minimum 30%?
Found: condition not met

Lookup: Would you say Cc1oc(-c2ccc(C(F)(F)F)cc2)nc1COc1cccc(C#CC(C)n2oc(=O)[nH]c2=O)c1 (centres undefined) shows inhibition at minimum 30%?
Found: condition met

The reported measurements were obtained from ChEMBL document CHEMBL1132971.
